Tested on: SR leukemia
Assay: NCI-60 one-dose screen, 48 h
Settings: 10 µM unless noted
Experimental: Growth inhibition of the SR human tumor cell line is measured as a screen for anti-cancer activity. Cells are grown in 96 well plates and exposed to the test compound for 48 hours. Compounds are tested at a single concentration, which is 10^-5 M for most compounds. The reported endpoint is percent growth (GI% or GIPRCNT), where numbers from 0 - 100% represent growth inhibition, and numbers from -100% - 0 represent cell death. For example, a value of 40 represents 60% growth inhibition. […]
The panel holds about 83,000 compounds, 20% with a hit somewhere; the sample as a whole holds those more often. Active and inactive are the calls of the source. The calls were made as follows: active = growth percent below 10; inactive = the rest.
Would you mind answering with one of these outcomes? active, inactive

{"columns": ["COMPOUND", "DISCRETE LABEL"],
 "data": [
  ["Cc1[nH]c(=S)[nH]c(=O)c1C", "inactive"],
  ["C=CC1=NC(C)(C)CC(C)O1 (configuration not stated)", "inactive"],
  ["CCC1CCC(C)NC1 (configuration not stated)", "inactive"],
  ["CC(=O)/C(C)=N\\OC(=O)Nc1ccccc1", "inactive"],
  ["Cc1onc(-c2c(F)cccc2Cl)c1-c1ncc(-c2ccc(Br)cc2)o1", "inactive"]
]}

Tell me the assay call for Nc1cc(F)ccc1[N+](=O)[O-] please. inactive

Now this one: C=CCNC(=S)N/C=C(/C(=O)c1ccccc1)c1ccccc1 inactive

Entry COc1cccc(N=CNc2cccc(OC)c2)c1 please inactive

Try this compound too: COc1ccc2c(ccc[n+]2C)c1 inactive

Same for CCOc1ccncc1[N+](=O)[O-] inactive
